target: recombinant human dipeptidyl peptidase 4 (rhDPP4) (Homo sapiens (Human)); assay: rhDPP4 inhibitor screening experiment; details: Gly-Pro-aminoluciferin substrate, luminescence, room temperature 1 hour
Sequence (P27487 whole entry): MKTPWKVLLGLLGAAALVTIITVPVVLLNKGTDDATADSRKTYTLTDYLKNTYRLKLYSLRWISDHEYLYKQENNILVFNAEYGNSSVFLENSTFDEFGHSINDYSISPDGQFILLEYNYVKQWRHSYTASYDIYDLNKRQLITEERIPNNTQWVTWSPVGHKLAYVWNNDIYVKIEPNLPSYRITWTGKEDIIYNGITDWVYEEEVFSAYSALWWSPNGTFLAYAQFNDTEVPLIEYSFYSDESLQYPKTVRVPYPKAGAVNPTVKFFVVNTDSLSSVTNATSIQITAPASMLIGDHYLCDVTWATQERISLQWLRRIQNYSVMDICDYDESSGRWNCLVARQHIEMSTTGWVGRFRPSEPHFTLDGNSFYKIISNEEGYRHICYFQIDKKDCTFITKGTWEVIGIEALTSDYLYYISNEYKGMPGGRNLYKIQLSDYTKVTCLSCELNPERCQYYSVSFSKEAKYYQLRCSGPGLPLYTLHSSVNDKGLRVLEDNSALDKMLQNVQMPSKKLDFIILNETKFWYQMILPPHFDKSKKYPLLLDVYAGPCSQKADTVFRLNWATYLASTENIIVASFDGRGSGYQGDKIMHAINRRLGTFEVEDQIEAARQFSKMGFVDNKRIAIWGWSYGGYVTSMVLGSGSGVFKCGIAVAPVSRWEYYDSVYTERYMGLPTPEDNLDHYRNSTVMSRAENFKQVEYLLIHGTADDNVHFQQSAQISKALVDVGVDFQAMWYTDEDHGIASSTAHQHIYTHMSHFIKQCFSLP
pIC50: −log10 of the molar value.
outcome.measure: pIC50

1: CCc1ccc([C@@H]2O[C@H](SC)[C@@H](O)[C@H](O)[C@H]2O)cc1Cc1ccc(OC2CCN(C3CO[C@H](c4cc(F)ccc4F)[C@@H](N)C3)CC2)cc1 (stereo partly drawn)
2: CS[C@H]1O[C@@H](c2ccc(C(C)C)c(Cc3ccc(O[C@@H]4CCN([C@H]5CO[C@H](c6cc(F)ccc6F)[C@@H](N)C5)C4)cc3)c2)[C@H](O)[C@@H](O)[C@@H]1O
3: CCc1ccc([C@@H]2O[C@H](SC)[C@@H](O)[C@H](O)[C@H]2O)cc1Cc1ccc(O[C@@H]2CCN([C@H]3CO[C@H](c4cc(F)ccc4F)[C@@H](N)C3)C2)c(C)c1
Could you arrange the 3 compounds above by pIC50, starting with the largest number? Please express your ranking as an ordered list of the labels. 3, 2, 1
(3: 6.78, 2: 6.50, 1: 6.29)
